# protocolSummary: inhibitors of hydroxyurea-induced Chk1 phosphorylation, primary screen, imaging, HeLa, phospho-Chk1 nuclear intensity (AID 1187); also: test concentration not given here
# experimentalContext: hydroxyurea-induced phospho-Chk1 immunofluorescence imaging, higher = more signal
Binning rule for recorded z-score: low bin (below -0.4), mid bin (-0.4 to below 0.1), high bin (0.1 or more)

A selection of reference data follows.
COc1ccc([Si](C)(C)[C@@H]2[C@@H](CC(=O)N3CCC[C@H]3CO)O[C@]3(C(=O)N(Cc4ccc(I)cc4)c4ccccc43)[C@H]2C)cc1	low bin
C=CCC(OC(C)=O)[C@@H]1[C@@H](N(Cc2cccc3ccccc23)C(=O)Cc2ccc(OC)cc2)c2cc(OCCCO)ccc2N1C(=O)Cc1ccc(OC)cc1 (stereo partly drawn)	high bin
O=C1c2ccccc2[C@](Cc2ccccc2I)(C(=O)O)[C@H](c2ccc(CO)cc2)N1Cc1ccccc1Cl	low bin

input: Category of `Cc1ccc(S[C@]2(C(=O)NCC(C)C)CC(=O)N(C(C)C)[C@@H]2c2ccc(CO)cc2)cc1` :
output: mid bin

input: Given `O=C1O[C@@H](c2ccccc2)[C@@H](c2ccccc2)N2[C@@H](c3ccc(OCCO)cc3)[C@]3(C(=O)Nc4ccc(C#CC5(O)CCCCCC5)cc43)[C@@H](C(=O)NC[C@H](O)c3ccccc3)[C@H]12` , name the class its z-score places it in.
output: high bin

input: Lab note: sort `CC(C)C[C@@H]1NC(=O)[C@@H]2C[C@H](C(=O)NCCCCCNC(=O)CS)[C@H](c3cccc(OCCO)c3)N2C1=O` into the matching z-score band.
output: high bin

input: Form field 'band' for `COCCOC(=O)N1C(=O)[C@@]2(c3cc(C#CCNC(N)=O)ccc31)[C@H](C(=O)NC[C@H](O)c1ccccc1)[C@H]1C(=O)O[C@H](c3ccccc3)[C@H](c3ccccc3)N1[C@@H]2c1ccc(O)cc1`
output: low bin

input: Categorize the following entry: `COCCCNC(=O)[C@@]1(CCS(=O)(=O)c2ccccc2)N=C(c2ccc(OCCCO)cc2)O[C@H]1c1ccccc1CN=[N+]=[N-]`
output: low bin

input: Could you tell me which band `O=C1N(CCS(=O)(=O)c2ccccc2)Cc2ccccc2[C@@H]2OC(c3ccc(OCCCO)cc3)=N[C@]12Cc1ccccc1` belongs to?
output: high bin

input: Which class holds `COCCOC(=O)N1C(=O)[C@@]2(c3cc(C#CC4(O)CCCCCC4)ccc31)[C@H](c1ccccc1OCCO)N1[C@H](c3ccccc3)[C@H](c3ccccc3)OC(=O)[C@H]1[C@@H]2C(=O)Nc1nc2ccccc2s1` ?
output: mid bin

input: Any idea which band `O=C(NCc1ccccc1)[C@@H]1c2ccccc2C(=O)N(Cc2ccccc2Cl)[C@H]1c1ccc(CO)cc1` is in?
output: high bin

input: Lab note: sort `COCCOC(=O)N1C(=O)[C@@]2(c3cc(C#CCCO)ccc31)[C@H](c1ccccc1OCCO)N1[C@H](c3ccccc3)[C@H](c3ccccc3)OC(=O)[C@H]1[C@@H]2C(=O)NC[C@H](O)c1ccccc1` into the matching z-score band.
output: low bin

###

# experimentalSystem: Fibroblast growth factor 2 (Homo sapiens) (UniProt P09038)
# Sequence (P09038 whole entry, looked up): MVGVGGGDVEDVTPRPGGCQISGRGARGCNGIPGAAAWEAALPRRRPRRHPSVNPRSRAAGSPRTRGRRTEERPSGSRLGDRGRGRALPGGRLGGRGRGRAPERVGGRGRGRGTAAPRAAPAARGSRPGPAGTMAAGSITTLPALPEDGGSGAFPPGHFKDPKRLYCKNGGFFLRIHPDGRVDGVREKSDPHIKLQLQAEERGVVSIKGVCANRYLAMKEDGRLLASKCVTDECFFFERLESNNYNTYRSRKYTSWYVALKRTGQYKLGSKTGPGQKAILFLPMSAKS
# protocolSummary: FGF2 binders on small-molecule microarrays, primary screen, biochemical, small-molecule microarray, 635/667 nm fluorescence (AID 1133)
# experimentalContext: small-molecule microarray binding, FGF2, fluorescence 635/667; higher = more signal
So I've got a bunch of compounds here, and I need their composite z-score values.
Numbers only.

Below are worked cases with known answers.
O=C(O)[C@H]1C[C@H]2C(=O)NCC(=O)N2[C@H]1c1cccc(OCCO)c1	0.161
CC(C)C[C@@H]1NC(=O)[C@@]23C(=O)N[C@@H](Cc4ccccc4)C2[C@H](C)[C@@]2(C)O[C@H]2C3/C=C/C/C=C\CNC(=O)[C@H](Cc2ccccc2)NC1=O (some centres not stated)	0.31
COc1c(C)cc(-c2cc3c(c(CCc4ccccc4)n2)[Si](C(C)C)(C(C)C)OC3)cc1C	0.0057
NC(=O)N1C(=O)C2C(C1=O)C1C=C(c3ccc(CO)cc3)C2C(C2CC2)N1Cc1cc2c(cc1Br)OCO2 (configuration not stated)	-0.149
O=C(O)[C@H]1C[C@H]2C(=O)N[C@@H](Cc3ccccc3)C(=O)N2[C@H]1c1ccc(O)cc1	0.677

For every item in the list below, what is its measured composite z-score?
1. Cc1ccc(S[C@]2(C(=O)NC3CC3)CC(=O)N(Cc3ccccc3C(F)(F)F)[C@@H]2c2ccc(CO)cc2I)cc1
2. COCCOC(=O)N1C(=O)[C@@]2(c3cc(C#CC4(O)CCCCCC4)ccc31)[C@H](C(=O)NC[C@H](O)c1ccccc1)[C@H]1C(=O)O[C@H](c3ccccc3)[C@H](c3ccccc3)N1[C@@H]2c1ccccc1OCCO

output:
1: 0.0123; 2: 1.56
